assay.metric: log10 Koc (L/kg)

Use the examples below as a reference point.
Quick note, log10 Koc (L/kg) for CC(O)CO (stereo unspecified) landed at 0.36

Quick note, log10 Koc (L/kg) for CCC(C)Nc1c([N+](=O)[O-])cc(C(C)(C)C)cc1[N+](=O)[O-] (stereo unspecified) landed at 3.98

Quick note, log10 Koc (L/kg) for Nc1ccc(N=Nc2ccccc2)c(N)n1 landed at 2.32

Quick note, log10 Koc (L/kg) for COC(=O)C(C)N(C(=O)Cc1ccccc1)c1c(C)cccc1C (stereo unspecified) landed at 3.54

Quick note, log10 Koc (L/kg) for CNC(=O)Oc1cccc(N=CN(C)C)c1 landed at 2.44

Here is the next item to consider.
Quick note, log10 Koc (L/kg) for CCCCCC(=O)O landed at 1.46

====

Below, each of the molecules is paired with its reported log10 BCF value.
Settings: fish
Lab note: record the figure alone, no unit after it.

Use the examples below as a reference point.
Quick note, log10 BCF for OCCN(CCO)CCO landed at 0.59

Quick note, log10 BCF for COP(=O)(OC)OC(=CCl)c1cc(Cl)c(Cl)cc1Cl landed at 1.61

Quick note, log10 BCF for CC(C)COc1ccc2ccccc2c1 landed at 2.8

Here is the next item to consider.
Quick note, log10 BCF for Clc1ccc(Cl)c2ccccc12 landed at 3.75

====

assay.metric: melting point (°C)
# output: bare number, implied unit °C

Use the examples below as a reference point.
Quick note, melting point for COB(OC)OC landed at -31.6

Quick note, melting point for CC(=O)NC(CCC(N)=O)C(=O)O (stereo not given) landed at 197

Quick note, melting point for O=C([O-])CF.[Na+] landed at 201

Quick note, melting point for OCCN(CCO)CCO landed at 20.5

Further cases:
Quick note, melting point for O=C(OCc1ccccc1)c1ccccc1 landed at 21

Quick note, melting point for C1=NN(c2ccccc2)CC1 landed at 52

Quick note, melting point for COC(=O)CCCCC(=O)O landed at 9

Quick note, melting point for CC1CC(C)(C)CC1=O (stereo not given) landed at -25.6

Quick note, melting point for O=C1c2ccccc2C(=O)c2cc(O)ccc21 landed at 306

Quick note, melting point for O=C1CCCCC1 landed at -31

Quick note, melting point for Cn1cnc([N+](=O)[O-])c1Sc1ncnc2nc[nH]c12 landed at 244

Quick note, melting point for CNC(=O)ON=C(C)C(C)SC (stereo not given) landed at 25

Quick note, melting point for C[C@H](CCC(=O)O)[C@H]1CC[C@H]2[C@@H]3CC[C@@H]4C[C@H](O)CC[C@]4(C)[C@H]3C[C@H](O)[C@]12C landed at 177

Quick note, melting point for Cn1cc(-c2ccccc2)c(=O)c(-c2cccc(C(F)(F)F)c2)c1 landed at 154

Quick note, melting point for Cc1ccccc1CBr landed at 21

Quick note, melting point for O=C(O)CC[N+](=O)[O-] landed at 62

Quick note, melting point for CC(C)(C)O landed at 25.4

Quick note, melting point for CCN(CC)CCCN(c1ccccc1)C1Cc2ccccc2C1 landed at 120

Quick note, melting point for CCOC(=O)c1ncn2c1CN(C)C(=O)c1cc(F)ccc1-2 landed at 202

Quick note, melting point for CCOC(=O)c1cccc(C(=O)OCC)c1 landed at 11.5

Quick note, melting point for O=C(O)C(Cl)(Cl)CCl landed at 65.5

Quick note, melting point for c1cc2c3c(ccc4c3c1CCC4)CCC2 landed at 133

Quick note, melting point for CCSc1nc(NC(C)C)nc(NC(C)C)n1 landed at 105

Quick note, melting point for CN1c2ccccc2Sc2ccc(CC(=O)O)cc21 landed at 144

Quick note, melting point for CC[N+](C)(C)CCN(C)CC[N+](C)(C)CC.[Br-].[Br-] landed at 214

Quick note, melting point for CC12CCC(CC1)C2(C)C landed at 158

Quick note, melting point for O=P(OCCCl)(OCCCl)OCCCl landed at -35

Quick note, melting point for CC(C)SSC(C)C landed at -69

Quick note, melting point for CCOC(=O)C(O)(c1ccccc1)c1ccccc1 landed at 34

====

Below, each of the compounds is paired with its reported melting point value.
I'd appreciate it if you included the unit after the number.

Quick note, melting point for Oc1ccc(-c2ccccc2)cc1 landed at 166 °C

Further cases:
Quick note, melting point for CCCOc1cc(N)ccc1C(=O)OCCN(CC)CC.Cl landed at 149 °C

Quick note, melting point for CCCCCCCCOC(C)=O landed at -38.5 °C

Quick note, melting point for Cc1nccc2ccccc12 landed at 10 °C

Quick note, melting point for CCCCCCCOC(=O)CCCCC landed at -34.4 °C

====

assay.metric: log10 vapour pressure (mmHg)
Lab note: record the figure alone, no unit after it.

Use the examples below as a reference point.
Quick note, log10 vapour pressure (mmHg) for C#CC landed at 3.63

Quick note, log10 vapour pressure (mmHg) for COP(=O)(OC)C(O)C(Cl)(Cl)Cl (configuration not stated) landed at -5.11

Quick note, log10 vapour pressure (mmHg) for C=Cc1cccc(C=C)c1 landed at -0.237

Quick note, log10 vapour pressure (mmHg) for CCN(C(=O)SCc1ccccc1)C(C)C(C)C (configuration not stated) landed at -5.12

Here is the next item to consider.
Quick note, log10 vapour pressure (mmHg) for Clc1ccccc1Oc1ccccc1 landed at -2.4

====

Below, each of the molecules is paired with its reported boiling point value.
I'd appreciate it if you included the unit after the number.

Use the examples below as a reference point.
Quick note, boiling point for CCC(=O)OCC1CCCO1 (stereo not drawn) landed at 206 °C

Quick note, boiling point for C1=Cc2ccccc2CC1 landed at 206 °C

Here is the next item to consider.
Quick note, boiling point for CCC(C)Oc1ccccc1 (stereo not drawn) landed at 194 °C

====

Below, each of the compounds is paired with its reported log10 vapour pressure (mmHg) value.
Lab note: record the figure alone, no unit after it.

Quick note, log10 vapour pressure (mmHg) for CC(O)CCl (centres undefined) landed at 0.69

Quick note, log10 vapour pressure (mmHg) for C[N+](C)(C)CCCl.[Cl-] landed at -7.12

Quick note, log10 vapour pressure (mmHg) for Fc1cccc(F)c1 landed at 1.92

Further cases:
Quick note, log10 vapour pressure (mmHg) for Clc1cccc(-c2c(Cl)c(Cl)cc(Cl)c2Cl)c1Cl landed at -5.96

Quick note, log10 vapour pressure (mmHg) for Nc1ccc2ncccc2c1 landed at -4.79

Quick note, log10 vapour pressure (mmHg) for CCC(C)c1cc([N+](=O)[O-])cc([N+](=O)[O-])c1OC(=O)C=C(C)C (centres undefined) landed at -6.5

====

assay.metric: log10 biodegradation half-life (days)
Lab note: record the figure alone, no unit after it.

Use the examples below as a reference point.
Quick note, log10 biodegradation half-life (days) for Cc1ccc(C)c(C)c1 landed at 0.602

Quick note, log10 biodegradation half-life (days) for CC1CCC(C)C1 (stereo unspecified) landed at 0.602

Quick note, log10 biodegradation half-life (days) for CCC(CC)CC landed at 0.602

Quick note, log10 biodegradation half-life (days) for CCCCCC(C)(C)C landed at 0.778

Quick note, log10 biodegradation half-life (days) for CCC1c2ccccc2-c2ccccc21 landed at 1.46

Quick note, log10 biodegradation half-life (days) for C1C2CC3CC1CC(C2)C3 landed at 3

Quick note, log10 biodegradation half-life (days) for CC1CCCCC1C (stereo unspecified) landed at 1.26

Quick note, log10 biodegradation half-life (days) for Cc1ccc2c(ccc3ccccc32)c1 landed at 1.36

Quick note, log10 biodegradation half-life (days) for Cc1ccccc1C landed at 0.778

Quick note, log10 biodegradation half-life (days) for CC1=CCc2ccccc21 landed at 0.477

Further cases:
Quick note, log10 biodegradation half-life (days) for CCCCC(C)CC (stereo unspecified) landed at 0.477

Quick note, log10 biodegradation half-life (days) for c1ccc2c(c1)CCCC2 landed at 0.903

Quick note, log10 biodegradation half-life (days) for Cc1ccc(C)c(C)c1C landed at 0.602

Quick note, log10 biodegradation half-life (days) for c1ccc2c(c1)Cc1c-2ccc2ccccc12 landed at 2.15

Quick note, log10 biodegradation half-life (days) for CCCCCC(C)CC (stereo unspecified) landed at 0.699

====

Is log10 vapour pressure (mmHg) at least -3? Then Y. If not, N.

Observe how each entry below is paired with its result.
Decide: log10 vapour pressure (mmHg) of ICc1ccccc1 >= -3?
Y

Decide: log10 vapour pressure (mmHg) of CC(Oc1ccc(Cl)cc1Cl)C(=O)O (configuration not stated) >= -3?
N

Decide: log10 vapour pressure (mmHg) of Brc1cccs1 >= -3?
Y

Decide: log10 vapour pressure (mmHg) of FC(F)(F)C(Cl)(Cl)Cl >= -3?
Y

Decide: log10 vapour pressure (mmHg) of CCOB(OCC)OCC >= -3?
Y

Decide: log10 vapour pressure (mmHg) of CN(C)C(=O)Nc1cc(C(C)(C)C)on1 >= -3?
N

Decide: log10 vapour pressure (mmHg) of O=Cc1ccccc1O >= -3?
Y

Decide: log10 vapour pressure (mmHg) of C=CCCCCCCCCCCCCCCCCC >= -3?
N

Decide: log10 vapour pressure (mmHg) of CCCCCCCCCC1CCCCC1 >= -3?
Y

Decide: log10 vapour pressure (mmHg) of CC(C)COC(=O)CC(C)C >= -3?
Y

Further cases:
Decide: log10 vapour pressure (mmHg) of CCCCCC[C@H](C)S >= -3?
Y

Decide: log10 vapour pressure (mmHg) of Clc1cc2oc3ccc(Cl)c(Cl)c3c2cc1Cl >= -3?
N

Decide: log10 vapour pressure (mmHg) of c1cnoc1 >= -3?
Y

Decide: log10 vapour pressure (mmHg) of CCOP(=S)(OCC)OP(=S)(OCC)OCC >= -3?
N

Decide: log10 vapour pressure (mmHg) of CC(C)(C)C(O)(CCc1ccc(Cl)cc1)Cn1cncn1 (configuration not stated) >= -3?
N

Decide: log10 vapour pressure (mmHg) of OC1CCCC1 >= -3?
Y

Decide: log10 vapour pressure (mmHg) of C=CC(=O)OCCCCCCCC >= -3?
Y
